Cited source: the SangsterLogP compilation

Overview of reported logP across a group of compounds:
- Assay explanation: method code SF-HPLC, from DOI: 10.1248/cpb.43.2238
Give only the figure.

Worked set:
# Structure notation, Val
measured = [
    ("O=[N+]([O-])c1cccs1", 1.58),
    ("CNC(=O)c1cccs1", 0.84),
    ("CCCOC(=O)c1cccs1", 3.01),
    ("COc1cccs1", 2.13),
    ("CCOC(=O)c1ccsc1", 2.32),
    ("CCCNC(=O)c1cccs1", 1.68),
]

# input Could you share which logP value was measured for CCCNC(=O)c1ccsc1 ?
# output 1.65

# input Given CC(=O)c1ccsc1 , state its recorded logP.
# output 1.26

# input Could you share which logP value was measured for CNC(=O)c1ccsc1 ?
# output 0.81

# input Tell me the measured logP of COC(=O)c1cccs1 , please.
# output 1.83

# input Given Clc1ccsc1 , state its recorded logP.
# output 2.55

====

Measured logP of individual entries
- Assay explanation: method code SF-HPLC, from DOI: 10.1248/cpb.43.2238
Reply: number alone, nothing else.

These solved cases illustrate the format of a correct answer.
# Structure notation, Val
records = [
    ("CCNC(=O)c1ccsc1", 1.18),
    ("CCCOC(=O)c1ccsc1", 3.03),
    ("c1ccsc1", 1.89),
]

# input Returns the measured logP for the input molecule. Input: CCNC(=O)c1cccs1
# output 1.18

# input Given the molecule CC(=O)c1cccs1 , what is its reported logP?
# output 1.27

# input Reported logP for N#Cc1cccs1 : what is it?
# output 1.34
